B1: library; numbered along this chain (parent)
chain: MAAAGGARLLRAASAVLGGPAGRWLHHAGSRAGSSGLLRNRGPGGSAEASRSLSVSARARSSSEDKITVHFINRDGETLTTKGKVGDSLLDVVVENNLDIDGFGACEGTLACSTCHLIFEDHIYEKLDAITDEENDMLDLAYGLTDRSRLGCQICLTKSMDNMTVRVPETVADARQSIDVGKTS

Variants of: B1
Test Summary: scaled log2 fold change in cell abundance, elesclomol vs control (0 = silent mean, 1 = nonsense mean) (scaled log2 ratio); higher = higher viability under elesclomol (loss of FDX1 cuproptosis function);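 note: variant abundance is its share of total variant reads in each endpoint sample, from next-generation sequencing of the integrated ORF PCR-amplified out of genomic DNA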
Measurement Parameters: with ABC1 FDX1 KO; elesclomol 5 nM; glucose 10 mM; 14 days
Classification field: criterion met = scaled log2 fold change at or over 0.1; criterion not met = scaled log2 fold change under 0.1.

>>> category_label("T114K")
"criterion met"

Enquiry: Record N96M ; criterion: scaled log2 fold change no lower than 0.1. Met?
Return: criterion met

Enquiry: Next entry: K182L
Return: criterion not met

Enquiry: Next entry: S148W
Return: criterion met

Enquiry: Next entry: T170P
Return: criterion not met

Enquiry: Next entry: C115W
Return: criterion met

Enquiry: Next entry: S63K
Return: criterion met

Enquiry: Next entry: G44Q
Return: criterion met
